The values you see were collected from patent US9266876B2.

- systemName: human CXCR3A (Homo sapiens (Human), UniProt P49682)
- Sequence (P49682 whole entry): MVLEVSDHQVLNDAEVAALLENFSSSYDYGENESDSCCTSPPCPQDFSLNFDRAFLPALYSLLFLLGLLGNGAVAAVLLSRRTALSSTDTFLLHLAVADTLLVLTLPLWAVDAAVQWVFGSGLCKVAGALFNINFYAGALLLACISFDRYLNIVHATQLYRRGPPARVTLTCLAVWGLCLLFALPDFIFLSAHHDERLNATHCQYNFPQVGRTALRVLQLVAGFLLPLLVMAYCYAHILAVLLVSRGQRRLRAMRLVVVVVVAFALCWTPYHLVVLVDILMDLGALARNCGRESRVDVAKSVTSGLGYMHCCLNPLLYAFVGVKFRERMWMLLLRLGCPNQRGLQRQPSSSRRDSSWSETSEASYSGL
- experimentSummary: FLIPR assay
- conditionDescription: CHO-K1 cells expressing the human CXCR3A coupled to Galpha(16); CXCL10 agonist 20 nM; Fluo-4-AM fluorescence; mean values if determined several times
propertyLabel: IC50 (nM)

Would you please look over these solved cases?
Cc1cn(CC(=O)N2CCN(c3scnc3-c3nc4ccccc4[nH]3)CC2)c2ccc(F)cc12: 13
C[C@@H]1CN(c2sc(C(F)(F)F)nc2-c2nc3ccccc3[nH]2)CCN1C(=O)Cn1cc(C2CCN(C)CC2)cn1: 16
C[C@@H]1CN(c2scnc2-c2nc3ccccc3[nH]2)CCN1C(=O)Cc1csc2ccccc12: 6

[A] Cc1nc(C)n(CC(=O)N2CCN(c3sc(C(F)(F)F)nc3-c3nc4c(C(F)(F)F)cccc4[nH]3)C[C@H]2C)n1
[B] C[C@@H]1CN(c2scnc2-c2nc3ccccc3[nH]2)CCN1C(=O)Cc1c[nH]c2ccccc12
Prompt: Field: entry with larger IC50 (options A / B ). Lab log: write the label of the selected item as the result.
Completion: B
(B: 10 nM, A: 7 nM)
